The origin of these recorded values is paper PMC10424183.

target: CRBN/DDB1 complex (Homo sapiens, UniProt Q96SW2); construct: made in house; test: R2 values of fragment hits at two ligand concentrations (preliminary ranking); assay type: binding; conditions: 200 μM ligand, 2 μM CRBN/DDB1 complex
Sequence (Q96SW2 40-442 limits assumed, species assumed, one chain of several): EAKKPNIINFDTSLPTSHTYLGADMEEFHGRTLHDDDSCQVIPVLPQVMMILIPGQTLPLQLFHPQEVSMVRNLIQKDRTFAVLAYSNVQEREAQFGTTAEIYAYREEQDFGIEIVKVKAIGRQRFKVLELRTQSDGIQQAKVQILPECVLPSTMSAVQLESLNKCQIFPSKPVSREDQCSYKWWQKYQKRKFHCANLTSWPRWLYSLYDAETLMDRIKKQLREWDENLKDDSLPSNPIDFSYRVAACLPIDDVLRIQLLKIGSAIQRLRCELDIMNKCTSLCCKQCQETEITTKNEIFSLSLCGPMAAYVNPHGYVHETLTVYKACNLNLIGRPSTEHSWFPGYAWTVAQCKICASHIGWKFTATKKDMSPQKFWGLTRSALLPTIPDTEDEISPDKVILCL
Overview of recorded average R2, compound at 200 μM for various compounds

compound	average R2, compound at 200 μM
Cc1ccc(N2CC(=O)NC2=O)cc1	2
CC(=O)Nc1cc2c(cc1C(=O)C(C)C)OCCO2	2.5
CC(=O)N1CCN(S(=O)(=O)c2ccc(C(C)C)cc2)CC1	1.1
O=C(c1ccc(F)cc1)N1CCN(c2ccccc2)CC1	1.4
O=CN1CCN(Cc2c(F)cccc2Cl)CC1	1.5
Nc1ccc(C(=O)NCC2COc3ccccc3O2)cc1 (stereo not drawn)	1.5
